Biological target: Retinoic acid receptor RXR-alpha (Homo sapiens, UniProt P19793)
Sequence (P19793 whole entry): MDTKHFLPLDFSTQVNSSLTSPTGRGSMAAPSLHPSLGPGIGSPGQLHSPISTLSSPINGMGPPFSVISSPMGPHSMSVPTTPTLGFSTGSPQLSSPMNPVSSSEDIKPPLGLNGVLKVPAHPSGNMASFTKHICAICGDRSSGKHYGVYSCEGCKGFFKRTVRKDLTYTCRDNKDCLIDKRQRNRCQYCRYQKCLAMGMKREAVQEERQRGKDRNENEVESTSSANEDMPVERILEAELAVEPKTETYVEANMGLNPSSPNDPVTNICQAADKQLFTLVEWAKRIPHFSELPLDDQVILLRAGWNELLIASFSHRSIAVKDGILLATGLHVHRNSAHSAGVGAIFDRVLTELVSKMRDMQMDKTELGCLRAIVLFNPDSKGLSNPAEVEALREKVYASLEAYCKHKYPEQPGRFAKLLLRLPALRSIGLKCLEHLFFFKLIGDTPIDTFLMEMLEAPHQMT
Experiment: Displacement of [3H]-9-cis-RA from RXRalpha (unknown origin) by liquid scintillation counting
measurement.label: IC50

compound	obs.value
CC1=C(CC(=O)O)c2cc(F)ccc2/C1=C\c1ccc(C(C)C)cc1	2.4 µM
CC1=C(CC(=O)O)c2cc(F)ccc2/C1=C\c1ccc([S+](C)[O-])cc1 (configuration not stated)	82.9 µM

----------
Reported pIC50 values for a set of compounds
Molecular target: Retinoic acid receptor RXR-alpha (Homo sapiens, UniProt P19793)
Sequence (P19793 whole entry): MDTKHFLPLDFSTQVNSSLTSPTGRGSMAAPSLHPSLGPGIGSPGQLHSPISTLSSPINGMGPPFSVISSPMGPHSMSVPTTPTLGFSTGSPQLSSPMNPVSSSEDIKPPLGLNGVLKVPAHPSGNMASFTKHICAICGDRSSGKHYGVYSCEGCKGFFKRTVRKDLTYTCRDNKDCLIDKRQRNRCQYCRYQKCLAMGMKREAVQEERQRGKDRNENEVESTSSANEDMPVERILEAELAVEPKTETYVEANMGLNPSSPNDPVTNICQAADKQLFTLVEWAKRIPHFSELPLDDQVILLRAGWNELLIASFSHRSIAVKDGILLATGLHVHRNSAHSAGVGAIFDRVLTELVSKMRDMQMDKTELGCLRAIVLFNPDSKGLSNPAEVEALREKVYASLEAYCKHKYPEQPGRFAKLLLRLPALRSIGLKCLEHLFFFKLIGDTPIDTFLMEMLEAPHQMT
Assay: Displacement of [3H]-9-cis-RA from human GST-tagged N-terminal truncated RXRalpha after 1 hr by liquid scintillation counting
pIC50: −log10 of the molar value.

structure.smiles.string	pIC50
CC1=C(CC(N)=O)c2cc(F)ccc2/C1=C/c1ccc(C(C)C)cc1	≤ 4.00
COc1ccc(/C=C2/C(C)=C(CC(=O)O)c3cc(F)ccc32)cc1	≤ 4.00
COc1ccc2c(c1)C(CC(=O)O)=C(C)/C2=C/c1ccc(C(C)C)cc1	≤ 4.00
